Catalogue of binders with associated BT474 pHER3 IC50
test-system: Human HER3, endogenous, on human cancer cell lines (SK-Br-3, MCF7, BT-474) (human, UniProt P21860 20-1342)
Sequence (P21860 20-1342): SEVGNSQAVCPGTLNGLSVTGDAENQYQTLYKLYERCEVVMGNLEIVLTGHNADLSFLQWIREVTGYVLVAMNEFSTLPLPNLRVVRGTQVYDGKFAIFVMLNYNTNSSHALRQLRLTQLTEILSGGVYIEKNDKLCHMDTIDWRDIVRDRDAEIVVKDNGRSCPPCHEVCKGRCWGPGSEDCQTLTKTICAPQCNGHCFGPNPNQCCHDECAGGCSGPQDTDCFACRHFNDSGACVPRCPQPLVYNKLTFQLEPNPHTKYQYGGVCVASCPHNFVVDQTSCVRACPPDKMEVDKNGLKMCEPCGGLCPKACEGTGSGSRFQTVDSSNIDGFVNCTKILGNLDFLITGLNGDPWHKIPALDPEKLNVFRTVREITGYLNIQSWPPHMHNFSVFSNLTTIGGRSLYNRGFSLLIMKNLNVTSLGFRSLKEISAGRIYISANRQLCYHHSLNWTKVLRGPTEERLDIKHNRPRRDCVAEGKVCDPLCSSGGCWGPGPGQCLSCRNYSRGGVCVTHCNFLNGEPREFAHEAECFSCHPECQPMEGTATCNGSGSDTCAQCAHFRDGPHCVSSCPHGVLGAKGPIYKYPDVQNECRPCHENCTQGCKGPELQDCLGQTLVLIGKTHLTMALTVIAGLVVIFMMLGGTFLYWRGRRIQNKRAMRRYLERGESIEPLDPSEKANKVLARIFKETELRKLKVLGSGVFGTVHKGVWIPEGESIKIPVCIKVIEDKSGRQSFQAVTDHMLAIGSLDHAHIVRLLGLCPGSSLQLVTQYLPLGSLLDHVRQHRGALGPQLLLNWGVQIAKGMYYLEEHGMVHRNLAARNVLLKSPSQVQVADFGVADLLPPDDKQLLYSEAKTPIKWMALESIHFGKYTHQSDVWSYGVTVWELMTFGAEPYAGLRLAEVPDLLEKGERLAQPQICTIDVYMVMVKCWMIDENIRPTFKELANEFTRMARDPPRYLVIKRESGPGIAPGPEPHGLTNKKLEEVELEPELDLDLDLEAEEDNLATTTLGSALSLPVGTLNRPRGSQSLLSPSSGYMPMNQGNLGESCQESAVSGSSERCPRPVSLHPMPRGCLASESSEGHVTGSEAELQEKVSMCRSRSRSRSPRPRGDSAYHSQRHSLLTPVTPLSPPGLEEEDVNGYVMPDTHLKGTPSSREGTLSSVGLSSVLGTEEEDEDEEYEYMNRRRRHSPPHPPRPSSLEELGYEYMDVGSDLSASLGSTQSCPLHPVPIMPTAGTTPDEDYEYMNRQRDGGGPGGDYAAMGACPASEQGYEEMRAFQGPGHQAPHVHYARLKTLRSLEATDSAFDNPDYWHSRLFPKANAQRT
test-summary: cell-based or functional assay
// note: answer is a bare numeric in pM

MOR13767 (antibody, human IgG1, kappa, V domains shown, tested as IgG) VH: QVQLVQSGAEVKKPGESLKISCKGSGYSFTTSWVAWVRQMPGKGLEWMGIIYPGQSDTIYSPSFQGQVTISADKSISTAYLQWSSLKASDTAMYYCARVHIIQPPSAWSYNAMDVWGQGTLVTVSS VL: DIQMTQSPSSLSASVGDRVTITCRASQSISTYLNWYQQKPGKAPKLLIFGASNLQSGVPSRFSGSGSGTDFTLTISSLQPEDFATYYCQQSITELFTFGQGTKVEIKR : 496
MOR13766 (antibody, human IgG1, kappa, V domains shown, tested as IgG) VH: QVQLVQSGAEVKKPGESLKISCKGSGYSFTTTWVAWVRQMPGKGLEWMGIIYPGSSDTIYSPSFQGQVTISADKSISTAYLQWSSLKASDTAMYYCARVHIIQPPSAWSYNAMDVWGQGTLVTVSS VL: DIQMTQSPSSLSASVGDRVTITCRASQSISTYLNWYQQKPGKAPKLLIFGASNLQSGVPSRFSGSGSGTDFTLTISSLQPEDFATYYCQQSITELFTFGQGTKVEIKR : 708

Kindly consider the entry below.
Indicate the recorded BT474 pHER3 IC50 value for this binder: MOR12925 (antibody, human IgG1, kappa, V domains shown, tested as IgG) VH: QVQLVQSGAEVKKPGESLKISCKGSGYSFSNYWIAWVRQMPGKGLEWMGIIYPGNSDTIYSPSFQGQVTISADKSISTAYLQWSSLKASDTAMYYCARVHIIQPPSAWSYNAMDVWGQGTLVTVSS VL: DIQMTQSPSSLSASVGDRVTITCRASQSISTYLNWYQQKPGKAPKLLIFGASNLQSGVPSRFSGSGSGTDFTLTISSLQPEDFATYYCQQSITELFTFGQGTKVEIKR
2160
